This collection of values is drawn from ChEMBL document CHEMBL5104205.

- test: Drug uptake in wild type Escherichia coli ATCC 25922 assessed as drug accumulation across outer membrane
- Format: ADME
Short version: Drug uptake at least 2 nmol is YES, less is NO.

Worked cases, answers included:
- querySmiles: "Cl.Cl.N=C(N)c1ccc(NC(=O)CCC(=O)Nc2ccc(C(=N)N)cc2)cc1"
  classAssignment: "NO"
- querySmiles: "O=C(O)c1cn(C2CC2)c2cc(N3CCNCC3)c(F)cc2c1=O"
  classAssignment: "YES"
- querySmiles: "Cl.Cl.N=C(N)Nc1ccc(NC(=O)CCC(=O)Nc2ccc(NC(=N)N)cc2)cc1"
  classAssignment: "NO"

Exercise: Please tell me: is the molecule `Cl.Cl.N=C(N)Nc1ccc(NC(=O)CCC(=O)Nc2ccc(N)cc2)cc1` at or over 2 nmol in terms of Drug uptake?
Key: NO

Exercise: Say whether `Cl.Cl.Nc1ccc(NC(=O)CCC(=O)Nc2ccc(N)cc2)cc1` shows Drug uptake of 2 nmol or more.
Key: YES

Exercise: Please tell me: is the molecule `CC1(C)S[C@@H]2[C@H](NC(=O)[C@H](N)c3ccccc3)C(=O)N2[C@H]1C(=O)O` at or over 2 nmol in terms of Drug uptake?
Key: NO

----------
- test: Drug uptake in Pseudomonas aeruginosa ATCC 9027 assessed as drug accumulation across outer membrane
- Format: ADME
Use 1 nmol as the dividing line for Drug uptake, with the line itself on the 1 side and lower values as -1.

Before answering, review these 5 worked examples.
- querySmiles: "Cl.Cl.Nc1ccc(NC(=O)CCC(=O)Nc2ccc(N)cc2)cc1"
  classAssignment: 1
- querySmiles: "O=C(O)c1cn(C2CC2)c2cc(N3CCNCC3)c(F)cc2c1=O"
  classAssignment: 1
- querySmiles: "Cl.Cl.N=C(N)Nc1ccc(NC(=O)CCC(=O)Nc2ccc(NC(=N)N)cc2)cc1"
  classAssignment: 1
- querySmiles: "CC1(C)S[C@@H]2[C@H](NC(=O)[C@H](N)c3ccccc3)C(=O)N2[C@H]1C(=O)O"
  classAssignment: -1
- querySmiles: "Cl.Cl.N=C(N)Nc1ccc(NC(=O)CCC(=O)Nc2ccc(N)cc2)cc1"
  classAssignment: -1

Next up:
Exercise: Check this compound for Drug uptake at or above 1 nmol: `Cl.Cl.N=C(N)c1ccc(NC(=O)CCC(=O)Nc2ccc(C(=N)N)cc2)cc1`
Key: -1
